protocol.notes: log P determination by LC-MS in the acidic range
Assay type: physicochemical
experimental.parameters: LC-MS in the acidic range
Measured log P (acid) values are reported for all entries that follow.
metric.name: log P (acid)

• Cc1cc(NC(=O)c2cccnc2)nn1Cc1nc2ccc(Cl)cc2o1 = 1.82
• CSCCNC(=O)n1nc(NC(=O)c2cccnc2)cc1C = 1.55
• Cc1cc(NC(=O)c2cccnc2)nn1CCF = 0.84
• Cc1cc(NC(=O)c2cccnc2)nn1C(=O)NCC(C)C = 1.89
• Cc1cc(NC(=O)c2cccnc2)nn1CC1OCCO1 = 0.81
• COCCn1nc(N(C)C(=O)c2cccnc2)cc1C = 0.79
• Cc1noc(Cn2nc(NC(=O)c3cccnc3)cc2C)n1 = 0.92
• Cc1cc(NC(=O)c2cccnc2)nn1Cc1nnc(C(C)(C)C)o1 = 1.44
• CCSCCn1nc(NC(=O)c2cccnc2)cc1C = 1.53
• COC(=O)n1nc(NC(=O)c2cccnc2)cc1C = 1.08
• Cc1cc(NC(=O)c2cccnc2)nn1C(=O)C(C)C = 1.95
• CSCn1nc(NC(=O)c2cccnc2)cc1C = 1.17
• O=C(Nc1cc(C2CC2)n(Cc2ccc(Cl)nc2)n1)c1cccnc1 = 1.77
• Cc1cc(NC(=O)c2cccnc2)nn1Cc1ccc2nsnc2c1 = 1.61
• Cc1cc(NC(=O)c2cccnc2)nn1-c1ccc(F)cc1 = 1.79
• Cc1cc(NC(=O)c2cnc(Cl)c(Cl)c2)nn1Cc1ccccc1F = 3.28
• Cc1cc(NC(=O)c2cccnc2)nn1Cc1cn2cc(F)ccc2n1 = 0.66
• Cc1cc(NC(=O)c2cccnc2)nn1C(=O)OCC(F)(F)F = 1.79
• O=C(Nc1ccn(-c2nccs2)n1)c1cccnc1 = 1.16
• Cc1cc(NC(=O)c2cccnc2)nn1C(=O)c1cccnc1 = 1.57
• Cc1cc(NC(=Nc2ccc(Cl)cc2Cl)c2cccnc2)nn1C = 1.77
• Cc1cc(NC(=O)c2cccnc2)nn1CN1CCS/C1=N/C#N = 1.08

---

protocol.notes: log P determination by LC-MS in the acidic range
Format: physicochemical
experimental.parameters: LC-MS in the acidic range
Source text: The LC-MS determination in the acidic range is effected at pH 2.7 using 0.1% aqueous formic acid and acetonitrile (contains 0.1% formic acid) as eluents, linear gradient from 10% acetonitrile to 95% acetonitrile. Alternatively, the determination is effected in the acidic range at pH 2.3 using 0.1% aqueous phosphoric acid and acetonitrile as eluents; linear gradient from 10% acetonitrile to 95% acetonitrile.
Parameter threshold = 2. Response is YES when log P (acid) meets or exceeds it, else NO.

- Cc1cc(NC(=O)c2cccnc2)nn1S(=O)(=O)N(C)C: NO
- O=C(Nc1ccn(-c2ncc(C(F)(F)F)cc2Cl)n1)c1cccnc1: YES
- Cc1cc(NC(=O)c2cccnc2)nn1Cc1ccc(Cl)c(Cl)n1: YES
- Cc1cc(C)nc(-n2nc(NC(=O)c3ccnnc3)cc2C)n1: NO
- Cc1cc(NC(=O)c2cccnc2)nn1Cc1ccccc1: NO
- Cc1cc(NC(=O)c2cccnc2)nn1C(=O)NCC1COC(C)(C)O1 (stereo not shown): NO
- CCS(=O)(=O)N(C)C(=O)n1nc(NC(=O)c2cccnc2)cc1C: NO

---

protocol.notes: log P determination by LC-MS in the acidic range
Format: physicochemical
experimental.parameters: Table 2, compounds of the formula (I-2); acidic range pH 2.7 or pH 2.3
Description: The LC-MS determination in the acidic range is effected at pH 2.7 using 0.1% aqueous formic acid and acetonitrile (contains 0.1% formic acid) as eluents, linear gradient from 10% acetonitrile to 95% acetonitrile. Alternatively, the determination is effected in the acidic range at pH 2.3 using 0.1% aqueous phosphoric acid and acetonitrile as eluents; linear gradient from 10% acetonitrile to 95% acetonitrile.
log P (acid) less than 1 is y; log P (acid) greater than or equal to 1 is n.

- CCOc1nc(OCC)nc(-n2cnc(NC(=O)c3cccnc3)n2)n1 [Compound I-2-10]: n
- CSc1nc(NC(=O)c2cccnc2)nn1C [Compound I-2-26]: y
- O=C(Nc1ncn(Cc2cccc(Cl)c2)n1)c1cccnc1 [Compound I-2-19]: n
- O=C(Nc1ncn(Cc2c(Cl)cccc2Cl)n1)c1cccnc1 [Compound I-2-8]: n
- COc1nc(NC(=O)c2cccnc2)nn1C [Compound I-2-16]: y
- Cn1cnc(NC(=O)c2cccnc2)n1 [Compound I-2-14]: y
- CN(C)C(=O)n1cnc(NC(=O)c2cccnc2)n1 [Compound I-2-9]: y
- Cc1nc(-n2cnc(NC(=O)c3cccnc3)n2)nc(C)c1C [Compound I-2-25]: n
- Cc1nc(NC(=O)c2cccnc2)n[nH]1 [Compound I-2-1]: y
- Cc1nc(NC(=O)c2cccnc2)nn1C(C)C [Compound I-2-20]: y
- O=C(Nc1ncn(Cc2ccc(Cl)cc2)n1)c1cccnc1 [Compound I-2-13]: n
- CCc1nc(NC(=O)c2cccnc2)nn1-c1ccccc1 [Compound I-2-6]: n

---

protocol.notes: log P determination by LC-MS in the acidic range
Type: physicochemical
experimental.parameters: LC-MS in the acidic range
Hi! Could you tag entries with log P (acid) below 1 as T, and those at or above as F? Much appreciated.

- Cc1cc(NC(=O)c2ccnnc2)nn1CC(F)(F)F [Compound I-1-250]: F
- Cn1nc(NC(=O)c2cncc(F)c2)c(Br)c1OC(F)F [Compound I-1-113]: F
- Cc1cc(NC(=O)c2cccnc2)nn1Cc1noc(C(=O)N(C)C)n1 [Compound I-1-286]: F
- Cc1cc(NC(=O)c2cccnc2)nn1-c1ccc(Cl)c(Cl)c1 [Compound I-1-206]: F
- Cc1cc(N(C)C(=O)c2cccnc2)nn1Cc1ncccn1 [Compound I-1-346]: T
- C#CCn1nc(NC(=O)c2cccnc2)cc1C [Compound I-1-19]: T

---

protocol.notes: log P determination by LC-MS in the acidic range
Format: physicochemical
experimental.parameters: amines of the formula (II-1); acidic range pH 2.7 (0.1% formic acid/acetonitrile) or pH 2.3 (0.1% phosphoric acid/acetonitrile)
Class fulfilled: log P (acid) at least 0.6. Class not fulfilled: log P (acid) below 0.6.

• Cc1cc(N)nn1-c1cnccn1 [II-1-6] = fulfilled
• COc1nn(Cn2nc(N)cc2C)c(=O)n1C1CC1 [II-1-47] = fulfilled
• Cc1cc(N)nn1CC=C(Cl)Cl [II-1-56] = fulfilled
• Cc1cc(N)nn1Cn1nc(C)n(C)c1=O [II-1-46] = not fulfilled
• C#CCn1nc(N)cc1C1CC1 [II-1-4] = fulfilled
• Cc1cc(N)nn1Cc1cccnc1 [II-1-28] = not fulfilled
• Cn1nc(N)cc1C(F)F [II-1-40] = not fulfilled
• Cc1cc(N)nn1Cn1ccc(C(F)(F)F)n1 [II-1-42] = fulfilled
• CCc1cc(N)nn1Cc1ccc(Cl)nc1 [II-1-19] = fulfilled
• Cc1cc(N)nn1C(C)(C)C#N [II-1-37] = fulfilled
• CC(C)=CCn1nc(N)cc1C [II-1-59] = fulfilled
• Nc1ccn(Cc2ccc(Cl)nc2)n1 [II-1-3] = not fulfilled
• Cc1cc(N)nn1CC(=O)Cc1ccccc1Cl [II-1-58] = fulfilled
• CCOCn1nc(N)cc1C [II-1-33] = not fulfilled
• Cc1cc(N)nn1Cn1nc(C)n(C2CC2)c1=O [II-1-49] = not fulfilled
• Cc1cc(N)nn1Cc1ccc(Cl)nc1 [II-1-5] = fulfilled
• Nc1cc(C2CC2)n(Cc2ccccc2)n1 [II-1-2] = fulfilled
• CSCn1nc(N)cc1C [II-1-60] = not fulfilled
• Cc1cc(N)nn1Cn1nccc1C(F)(F)F [II-1-41] = fulfilled
• Cc1cc(N)nn1CCCl [II-1-13] = not fulfilled
• Cc1cc(N)nn1CN1CCCNC1=O [II-1-57] = not fulfilled
• Cc1cc(N)nn1Cn1ccnn1 [II-1-45] = not fulfilled
• Cc1cc(N)nn1-c1ncccc1Cl [II-1-31] = fulfilled
• Nc1cc(Cl)n(Cc2ncccn2)n1 [II-1-36] = not fulfilled
• Cc1cc(N)nn1CN1CCS/C1=N/C#N [II-1-44] = not fulfilled
• COc1cc(OC)nc(Cn2nc(N)cc2C)n1 [II-1-12] = fulfilled
• Cc1ccnc(Cn2nc(N)cc2C)n1 [II-1-16] = not fulfilled
• C#CCn1nc(N)cc1CC [II-1-17] = not fulfilled
• Cc1cc(N)nn1C(C)C#N (centres unmarked) [II-1-64] = not fulfilled
• Cc1cc(N)nn1Cn1nc(C2CC2)n(C2CC2)c1=O [II-1-50] = fulfilled
• CC(C)=NOCn1nc(N)cc1C [II-1-52] = not fulfilled
• Cc1cc(N)nn1Cc1ccncc1 [II-1-18] = not fulfilled

Recorded values, source patent US20160106102A1.
